# measurement description: Acute toxicity (LD50) on CFLP and BDF1 mice
# measurement setup: mouse, in vivo, po
result type: LD50 at 504 h (mg/kg)
Give your result in mg/kg as a bare value.

stdin: Query (compound): CO[C@@H]([C@H](OC)[C@H](O)COS(C)(=O)=O)[C@H](O)COS(C)(=O)=O [compound of formula (I), 1,6-dimesyl-3,4-dimethyl-D-mannitol] ; field requested: LD50 at 504 h
stdout: 1100
